Assay: log P by HPLC (OECD Guideline 117), method [a] acidic range
Type: physicochemical
Conditions: HPLC, method [a] acidic range
metric: logP[a]

Look over these answered cases.
C=CCn1c(OCC(F)(F)F)nn(-c2cc(SCC(F)(F)F)c(C)cc2F)c1=O : 3.94
CCn1c(SC)nn(-c2cc([S+]([O-])CC(F)(F)F)c(C)cc2F)c1=O (stereo not drawn) : 2.39
CCN(CC)c1nn(-c2cc(SCC(F)(F)F)c(C)cc2F)c(=O)n1N : 3.22
CCCSc1nn(-c2cc(SCC(F)(F)F)c(C)cc2F)c(=O)n1C1CC1 : 4.41

a: CCSc1nn(-c2cc(SCC(F)(F)F)c(C)cc2F)c(=O)n1C1CC1
b: COCc1nn(-c2cc([S+]([O-])CC(F)(F)F)c(C)cc2F)c(=O)o1 (racemic)
Problem: Two entries are listed, a and b . Which one carries the higher logP[a]? Write down the label attached to your selection.
Result: a
